These data points were gathered from paper PMC6271756.

quantity-measured: melting point

Example compounds with recorded melting point:
compound	melting point
COc1ccc(OC)c(NC(=O)/C=C/c2ccc3c(c2)OCCCCO3)c1	110 to 111 °C
COc1ccc(NC(=O)/C=C/c2ccc3c(c2)OCCCCO3)cc1	112 to 113 °C
O=C(/C=C/c1ccc2c(c1)OCCCCO2)Nc1ccc(Br)cc1	107 to 108 °C
Cc1ccc(Cl)cc1NC(=O)/C=C/c1ccc2c(c1)OCCCCO2	107 to 108 °C
O=C(/C=C/c1ccc2c(c1)OCCCCO2)Nc1ccccc1[N+](=O)[O-] [Compound D2]	119 to 120 °C
CCOc1ccc(NC(=O)/C=C/c2ccc3c(c2)OCCCCO3)cc1	137 to 139 °C
COc1cc(NC(=O)/C=C/c2ccc3c(c2)OCCCCO3)cc(OC)c1OC	145 to 146 °C
O=C(/C=C/c1ccc2c(c1)OCCCCO2)Nc1ccc([N+](=O)[O-])cc1 [Compound D1]	125 to 126 °C
O=C(/C=C/c1ccc2c(c1)OCCCCO2)Nc1cccc(Cl)c1	109 to 110 °C
COc1ccc(NC(=O)/C=C/c2ccc3c(c2)OCCCCO3)cc1OC	171 to 172 °C

Qu. Recorded melting point of "O=C(/C=C/c1ccc2c(c1)OCCCCO2)Nc1ccc(Br)cc1F" , please.
Ans. 110 to 111 °C

Qu. Recorded melting point of "COc1cccc(NC(=O)/C=C/c2ccc3c(c2)OCCCCO3)c1" , please.
Ans. 104 to 105 °C
